Record form. Attribute: % Inhibition. Fill in for each entry.
Tested on: human SMAD7 mRNA
Assay: Antisense inhibition of human SMAD7 mRNA expression in Hep3B cells by 3-10-3 cEt gapmers, 10,000 nM, electroporation (Example 2)
Format: cell-based
Conditions: Hep3B cells, electroporation with 10,000 nM antisense oligonucleotide, approximately 24 hours, SMAD7 mRNA by RT-PCR (RTS5062), relative to untreated control cells
Strand notation (5' to 3'): a small letter for the sugar, then the base; units joined by * are phosphorothioate-linked, units joined directly phosphodiester-linked; [ ] holds rarer units or linkages, { } end groups; capitals alone tell only the bases. k = constrained ethyl (cEt); [5mC] = 5-methylcytosine; d = 2'-deoxy (DNA)
Numbers only, in %.

Worked cases, % Inhibition given:
• 799924 (antisense k[5mC]*kA*kA*dG*d[5mC]*d[5mC]*dT*dA*d[5mC]*dA*dT*dA*dT*kT*kT*k[5mC]) [compound 799924] = 22
• 830175 (antisense kT*k[5mC]*kT*d[5mC]*dA*dA*d[5mC]*dA*dG*dA*d[5mC]*d[5mC]*dA*k[5mC]*kA*k[5mC]) [compound 830175] = 44

GET /value?item= 798733 (antisense k[5mC]*kG*k[5mC]*dG*dG*d[5mC]*dT*dG*dG*d[5mC]*dG*dG*dG*kT*kG*kG) [compound 798733] &field=% Inhibition returns 72
